Recorded inhibition values for a group of compounds are listed next.
biological target: G/T mismatch-specific thymine DNA glycosylase (Homo sapiens); conditions: Compound Concentration 10.0 uM, Hit No
Description: Inhibition of TDG by quantifying inhibition of TDG-mediated cleavage and dissociation of quenched duplex DNA oligonucleotides, measured as fluorescence at 594 nm. To generate a functional strand incision and increase turn-over this assay is coupled to APE1.

| COMPOUND | SYSTEM | inhibition, % |
| --- | --- | --- |
| O=C(O)CCC/C=C\CC1C(O)CC(O)C1/C=C/C(O)COc1cccc(Cl)c1 (stereo unspecified) | G/T mismatch-specific thymine DNA glycosylase (Homo sapiens) | 2.98 |
| CNC(=O)c1cc(C(=O)NC2CC2)cn(Cc2ccccc2)c1=O | G/T mismatch-specific thymine DNA glycosylase (Homo sapiens) | 29.8 |
| Cc1c(N2CCNCC2)nc2ccc(Br)cc2c1C(=O)NC[C@H](CCC(=O)O)c1ccccc1Cl | G/T mismatch-specific thymine DNA glycosylase (Homo sapiens) | 41.3 |
| COc1cc(OC2CCN(C(C)=O)CC2)ccc1C(=O)N1CCC(N2C(=O)OCc3ccccc32)CC1 | G/T mismatch-specific thymine DNA glycosylase (Homo sapiens) | 20.8 |
| NCCc1cccs1 | G/T mismatch-specific thymine DNA glycosylase (Homo sapiens) | 6.37 |
| CN1CCC[C@H]1c1cccnc1 | G/T mismatch-specific thymine DNA glycosylase (Homo sapiens) | -9.56 |
| FC(F)(F)c1c(N2CCC(c3ccccc3)CC2)ccn2c(CC3CC3)nnc12 | G/T mismatch-specific thymine DNA glycosylase (Homo sapiens) | 16.4 |
| OC(c1ccc(-c2ccc(CN3CCN(Cc4ccncc4)CC3)cc2)c(F)c1)(C(F)(F)F)C(F)(F)F | G/T mismatch-specific thymine DNA glycosylase (Homo sapiens) | 64.2 |
| Cc1ccccc1N1CCN(CCc2nnc3n2CCCC3)CC1 | G/T mismatch-specific thymine DNA glycosylase (Homo sapiens) | 4.82 |
| CN[C@@H]1CCc2[nH]c3ccc(C(N)=O)cc3c2C1 | G/T mismatch-specific thymine DNA glycosylase (Homo sapiens) | 16.1 |
| CCOC(=O)C1=C[C@]2(CC)CCCN3CCc4c(n1c1ccccc41)[C@@H]32 | G/T mismatch-specific thymine DNA glycosylase (Homo sapiens) | -4.28 |
| CCC(=O)NCC[C@@H]1CCc2ccc3c(c21)CCO3 | G/T mismatch-specific thymine DNA glycosylase (Homo sapiens) | 9.54 |
| COC(=O)/C=C/c1cccc(N(Cc2ccc(-c3ccc(N(C)C)cc3)cc2)C(=O)C2CCCCC2)c1 | G/T mismatch-specific thymine DNA glycosylase (Homo sapiens) | 44.3 |
| CCOP(=O)(OCC)C(=Cc1cc(C(C)(C)C)c(O)c(C(C)(C)C)c1)P(=O)(OCC)OCC | G/T mismatch-specific thymine DNA glycosylase (Homo sapiens) | 58.6 |
| Oc1ccc2c3c1O[C@H]1c4[nH]c5c(c4C[C@@]4(O)[C@@H](C2)N(CC2CC2)CC[C@]314)C[C@@]1(O)[C@H]2Cc3ccc(O)c4c3[C@@]1(CCN2CC1CC1)[C@H]5O4 | G/T mismatch-specific thymine DNA glycosylase (Homo sapiens) | 10.6 |
| C=CC(=O)Nc1ccc2[nH]c(=O)n(C3CCN(C(=O)c4ccc(-c5nc6cc[nH]c(=O)c6cc5-c5ccccc5)cc4)CC3)c2c1 | G/T mismatch-specific thymine DNA glycosylase (Homo sapiens) | 58.7 |
| CCCOc1ccc2[nH]cc(C3=CCNCC3)c2n1 | G/T mismatch-specific thymine DNA glycosylase (Homo sapiens) | 11.1 |
| COc1ccc(CC[C@@H](OC(=O)[C@H]2CCCCN2C(=O)[C@@H](c2cc(OC)c(OC)c(OC)c2)C2CCCCC2)c2cccc(OCCN3CCOCC3)c2)cc1OC | G/T mismatch-specific thymine DNA glycosylase (Homo sapiens) | 97 |
| CCc1cccc(CC)c1NC(=O)c1nn(C)c2c1CCc1cnc(Nc3ccc(C(=O)NC4CCN(C)CC4)cc3OC(F)(F)F)nc1-2 | G/T mismatch-specific thymine DNA glycosylase (Homo sapiens) | 38.9 |
| Cc1nnc2ccc(-c3cccc(C(F)(F)F)c3)nn12 | G/T mismatch-specific thymine DNA glycosylase (Homo sapiens) | 5.5 |
| Cc1cc2c(-c3ccco3)cnc(N[C@@H]3CCN(C)C[C@H]3C(=O)NC3CCCCC3)c2[nH]c1=O | G/T mismatch-specific thymine DNA glycosylase (Homo sapiens) | 33.3 |

---

target: G/T mismatch-specific thymine DNA glycosylase (Homo sapiens) (UniProt Q13569); conditions: Compound Concentration 10.0 uM, Hit No;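 also: human TDG cleavage of quenched duplex DNA oligonucleotides coupled to APE1, strand release read as fluorescence at 594 nm, inhibition of TDG activity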
Sequence (Q13569 whole entry): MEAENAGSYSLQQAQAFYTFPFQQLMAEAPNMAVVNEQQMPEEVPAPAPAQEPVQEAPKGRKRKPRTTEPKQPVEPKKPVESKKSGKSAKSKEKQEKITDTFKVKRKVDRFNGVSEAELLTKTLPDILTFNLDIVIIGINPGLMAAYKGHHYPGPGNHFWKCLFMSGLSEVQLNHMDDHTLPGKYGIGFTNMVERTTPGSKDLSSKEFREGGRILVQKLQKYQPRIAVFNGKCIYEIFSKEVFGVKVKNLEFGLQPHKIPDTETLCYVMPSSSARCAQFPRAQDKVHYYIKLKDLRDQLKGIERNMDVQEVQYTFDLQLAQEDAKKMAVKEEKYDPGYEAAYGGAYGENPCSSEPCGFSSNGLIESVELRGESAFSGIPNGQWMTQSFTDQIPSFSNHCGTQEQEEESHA

| COMPOUND | UNIT_ANNOTATION | inhibition |
| --- | --- | --- |
| CC(C)(O)[C@H](F)CN1Cc2cc(NC(=O)c3cnn4cccnc34)c(N3CCOCC3)cc2C1=O | % | 45.3 |
| CCc1cc(C(C)=O)c(O)cc1OCCCCCC(C)(C)c1nn[nH]n1 | % | 21.1 |
| COc1cc(O)c(C(CC(=O)N2C[C@H](C)C[C@H](C)C2)c2ccc3c(c2)OCO3)c(OC)c1 (stereo partly specified) | % | 58.3 |
| O=c1ccc2c(OCCCCOc3ccccc3)c3ccoc3cc2o1 | % | -7.24 |
| CCOC(=O)c1cc(C#N)c(N2CCC(C(=O)NS(=O)(=O)Cc3ccccc3)CC2)nc1C | % | 22.6 |
| CCC[C@H](Oc1cc(C)c(-n2cc(C(F)(F)F)cn2)c(C)c1)c1ccc(C(=O)NCCC(=O)O)cc1 | % | 24.9 |
| C[C@H](NC(=O)[C@H](Cc1ccccc1)NC(=O)[C@H](CCC(N)=O)NC(=O)CNC(=O)[C@@H]1CCCN1C(=O)[C@H](Cc1ccccc1)NC(=O)[C@@H](N)Cc1ccc(O)cc1)C(=O)N[C@@H](Cc1ccccc1)C(=O)N[C@@H](CO)C(=O)O | % | 9.05 |
| Cc1c(C(=O)NC2CCCCC2)sc2nc3ccc(N)cc3n12 | % | 11.8 |
| O=C(O)c1ccc(-c2coc3ncc(-c4ccccc4)cc23)cc1Cl | % | 45.9 |
| C[C@@](Cc1c[nH]c2ccccc12)(NC(=O)Nc1ccc([N+](=O)[O-])cc1)C(=O)NCC1(c2ccccn2)CCCCC1 | % | 0.518 |
| COc1cc(N2CCC(O)CC2)ccc1Nc1cc(Nc2ccccc2S(=O)(=O)C(C)C)c2cc[nH]c2n1 | % | 52.6 |
| O=C1CCc2cc(Nc3cc(OC4CCOCC4)c([N+](=O)[O-])cc3Cl)ccc2N1 | % | 79.3 |
| Cc1nc(C#Cc2cccnc2)cs1 | % | 4.62 |
| CCCCOCCOc1nc(-c2ccc(C(=O)O)c(F)c2)sc1C | % | 46.5 |
| C=CC(=O)N1CCC([C@@H]2CCNc3c(C(N)=O)c(-c4ccc(Oc5ccccc5)cc4)nn32)CC1 | % | 49.9 |
| c1ccc2c(c1)CCC[C@H]2Nc1nc2ccccc2[nH]1 | % | 8.8 |

---

target: Methyl-CpG-binding domain protein 4 (Homo sapiens); conditions: Compound Concentration 10.0 uM, Hit No;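 also: MBD4 activity read as fluorescence at 594 nm from cleavage and release of a quenched duplex DNA oligonucleotide, with APE1 coupled to incise the strand and raise turnover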
Description: Inhibition of MBD4 by quantifying inhibition of MBD4-mediated cleavage and dissociation of quenched duplex DNA oligonucleotides, measured as fluorescence at 594 nm. To generate a functional strand incision and increase turn-over this assay is coupled to APE1.
Threshold check on inhibition: at or above 40% gives fulfilled, strictly below gives not fulfilled.

| COMPOUND | DISCRETE_LABEL |
| --- | --- |
| COC(=O)C1=C(C)NC(C)=C(C(=O)OC(C)C)C1c1cccc2nonc12 (stereo not given) | not fulfilled |
| CCc1ccc(OCc2ccccc2C(=O)Nc2ccc3nc(C)cc(N)c3c2)cc1 | fulfilled |
| O=C1CCc2cc(Nc3cc(OC4CCOCC4)c([N+](=O)[O-])cc3Cl)ccc2N1 | fulfilled |
| Cc1ccc2nc(CNCCCOc3ccccc3)cc(O)c2c1 | not fulfilled |
| FC(F)(F)c1c(N2CCC(c3ccccc3)CC2)ccn2c(CC3CC3)nnc12 | not fulfilled |
| Cc1cccc(CCN2CCC(C(=O)c3ccc(NS(C)(=O)=O)cc3)CC2)n1 | not fulfilled |
| FC(F)(F)c1ccc(N2CCNCC2)nc1Cl | not fulfilled |
| O=C(Nc1cccnc1)c1cc(-c2ccnc(F)c2)ccc1OCc1ccccc1 | not fulfilled |
| COc1cc(N2CCC(O)CC2)ccc1Nc1cc(Nc2ccccc2S(=O)(=O)C(C)C)c2cc[nH]c2n1 | not fulfilled |
| COCCCS(=O)(=O)c1cc(C)c(-c2ccc(F)c3c2CC[C@H]3Oc2ccc3c(c2)OC[C@H]3CC(=O)O)c(C)c1 | fulfilled |
| CC(C)(O)c1ccccc1CC[C@@H](SCC1(CC(=O)O)CC1)c1cccc(/C=C/c2ccc3ccc(Cl)cc3n2)c1 | fulfilled |
| CN1CCN(C(=O)c2ccc3cc2OCCOCCNc2ccn4ncc-3c4n2)CC1 | not fulfilled |
| CC(=O)Nc1nc2c(Oc3cc(-c4ccc(C(F)(F)F)cc4)ncn3)cccc2s1 | not fulfilled |
| COc1ccccc1N1CCN(C[C@@H](C(=O)NC(C)(C)C)c2ccccc2)CC1 | not fulfilled |
| Nc1nc(NCc2ccccc2)nc(-c2ccccc2CO)n1 | fulfilled |
| CCOC(=O)C1=C(C)NC(C)=C(C(=O)OC)C1c1cccc([N+](=O)[O-])c1 (stereo not given) | not fulfilled |
| O=C(O)c1ccc(C(=O)N[C@@H](c2ccc(OC(F)(F)F)c(F)c2)c2ncccc2F)nc1 | not fulfilled |
| CC1=C(C(=O)Nc2cc3cn[nH]c3cc2F)C(c2ccc(C(F)(F)F)cc2)CC(=O)N1 (stereo not given) | not fulfilled |
| N#CC1(c2ccccn2)CCN(Cc2cc(C(=O)O)c(=O)n3ccccc23)CC1 | fulfilled |
| Cc1cnc(-c2cc(Cl)ccc2F)cc1-n1c(=O)n(CC(N)=O)c2ccccc21 | not fulfilled |
